- ASSAY TEXT: NCI Yeast Anticancer Drug Screen. Data for the mlh1 rad18 strain (AID 175)
- APPLIED CONDITIONS: S. cerevisiae mlh1 rad18 strain growth inhibition; at 5.0 µM (retest, dose inferred, filed as 0.5); hits give high values
This is part of a sample that, as a whole, favours compounds with a hit. Of some 79,000 tested, about 15% had one in any assay.
Each entry below lists one item and its recorded growth inhibition value.

# MOLECULE, MEASURE UNIT, growth inhibition
rows = [
    ("COc1ccc([N+](=O)[O-])cc1NC(=O)Nc1ccc(C(=O)OCC(C)C)cc1", "%", 13),
    ("CC1(C)CC[C@]2(C(=O)O)CC[C@]3(C)C(=CC[C@@H]4[C@@]5(C)C[C@H](O)[C@H](O)[C@@](C)(C(=O)O)[C@@H]5CC[C@]43C)[C@@H]2C1", "%", 100),
    ("Clc1cccc2c(-c3ccccc3)c3cccc(Cl)c3cc12", "%", 1),
    ("CS(=O)(=O)N\\N=C1/C=C\\C(=N/NS(C)(=O)=O)CCc2ccc(cc2)CC1", "%", 5),
    ("CN1CCN=C1c1ccc(NC(=O)Nc2ccc(NC(=O)Nc3ccc(C4=NCCN4C)cc3)cc2)cc1", "%", 1),
    ("c1ccc(N=Nc2ccc3ccccc3c2)cc1", "%", 8),
    ("CCCCCCCn1ccnc1NCCCCCCCCCCNc1nccn1CCCCCCC", "%", -1),
    ("CC/C(C)=N/OC(=O)Nc1ccccc1", "%", 1),
    ("CC(C)c1cc2c(cc1O)C[C@@]1(O)CCCC(C)(C)C1CC2 (stereo not given in full)", "%", 10),
    ("CN(C)CCNC(=O)C(c1ccccc1)c1ccccc1", "%", 30),
]
